- System: UACC-62 melanoma
- Test description: NCI-60 one-dose screen, 48 h (100 = growth as untreated, 0 = no growth, -100 = all killed)
- Assay setup: 10 µM unless noted
The panel holds about 83,000 compounds, 20% with a hit somewhere; the sample as a whole holds those more often.
Documented growth across a set of molecules
Respond numerically; units are % and should not be typed.

# count of solved cases: 5
Molecule	Result
CC(=O)CC(c1ccc([N+](=O)[O-])cc1)c1c(O)c2ccccc2oc1=O (centres undefined)	100
O=C1/C=C/[C@@H](O)[C@@H]2C[C@@H](O)C[C@H]2/C=C/CCC[C@H]([C@@H](O)CO)O1	62.5
CC[C@H](C)[C@H](N)C(=O)O	102
Cc1ccc(C(CN(C)C)C(=O)c2ccccc2)cc1 (centres undefined)	6.99
Cc1nc(N)nc2c1CCC(Nc1ccccc1)S2 (centres undefined)	108

Tell me the measured growth of `COc1cccc(/C=N\Nc2ccc([N+](=O)[O-])cn2)c1O` , please.
54.7

Follow-up item: COc1ccc(C(=O)OC2C(OC3C(O)COC(O[C@H]4C[C@H]5[C@@H]6CC=C7C[C@@H](O)CC[C@]7(C)[C@H]6CC[C@]5(C)[C@H]4[C@H](C)C(=O)CCC(C)C)C3OC(N)=O)OCC(O)C2O)cc1 (some centres undefined)
-57.7

Follow-up item: `C[N+](C)(C)CCCCCCCCCC[N+](C)(C)C`
91.7

Follow-up item: `O=[N+]([O-])c1ccc(N/N=C/c2ccccc2O)nc1`
42.7

Follow-up item: `O=C(/C=C/c1ccccc1)c1c[nH]c2ccccc2c1=O`
29.2

Follow-up item: `Cc1cc(Nc2c3ccccc3nc3ccccc23)ccc1NS(C)(=O)=O`
57

Follow-up item: `O=C(CC(=O)c1cccc(Cl)c1)c1cccc(Cl)c1`
27.2

Follow-up item: `O=C1OC(/C=C/c2ccccc2)=NC/1=C/c1ccccc1[N+](=O)[O-]`
110

Follow-up item: COc1ccc(C(=O)OC2C(OC3C(O)COC(O[C@H]4C[C@H]5[C@@H]6CC=C7C[C@@H](O)CC[C@]7(C)[C@H]6CC[C@]5(C)[C@H]4[C@H](C)C(=O)CCC(C)C)C3OC(C)=O)OCC(O)C2O)cc1 (some centres undefined)
-49.9

Follow-up item: `O=C(NO)c1ccc(CNc2cccc3nc(C4CC4)n(-c4ccccc4)c(=O)c23)cc1`
-22.2
